# targetSystem: P-gp (Homo sapiens, UniProt P08183)
# Construct: expressed in transfected cells; host or cells: MDCK-II cells
# Sequence (P08183 whole entry): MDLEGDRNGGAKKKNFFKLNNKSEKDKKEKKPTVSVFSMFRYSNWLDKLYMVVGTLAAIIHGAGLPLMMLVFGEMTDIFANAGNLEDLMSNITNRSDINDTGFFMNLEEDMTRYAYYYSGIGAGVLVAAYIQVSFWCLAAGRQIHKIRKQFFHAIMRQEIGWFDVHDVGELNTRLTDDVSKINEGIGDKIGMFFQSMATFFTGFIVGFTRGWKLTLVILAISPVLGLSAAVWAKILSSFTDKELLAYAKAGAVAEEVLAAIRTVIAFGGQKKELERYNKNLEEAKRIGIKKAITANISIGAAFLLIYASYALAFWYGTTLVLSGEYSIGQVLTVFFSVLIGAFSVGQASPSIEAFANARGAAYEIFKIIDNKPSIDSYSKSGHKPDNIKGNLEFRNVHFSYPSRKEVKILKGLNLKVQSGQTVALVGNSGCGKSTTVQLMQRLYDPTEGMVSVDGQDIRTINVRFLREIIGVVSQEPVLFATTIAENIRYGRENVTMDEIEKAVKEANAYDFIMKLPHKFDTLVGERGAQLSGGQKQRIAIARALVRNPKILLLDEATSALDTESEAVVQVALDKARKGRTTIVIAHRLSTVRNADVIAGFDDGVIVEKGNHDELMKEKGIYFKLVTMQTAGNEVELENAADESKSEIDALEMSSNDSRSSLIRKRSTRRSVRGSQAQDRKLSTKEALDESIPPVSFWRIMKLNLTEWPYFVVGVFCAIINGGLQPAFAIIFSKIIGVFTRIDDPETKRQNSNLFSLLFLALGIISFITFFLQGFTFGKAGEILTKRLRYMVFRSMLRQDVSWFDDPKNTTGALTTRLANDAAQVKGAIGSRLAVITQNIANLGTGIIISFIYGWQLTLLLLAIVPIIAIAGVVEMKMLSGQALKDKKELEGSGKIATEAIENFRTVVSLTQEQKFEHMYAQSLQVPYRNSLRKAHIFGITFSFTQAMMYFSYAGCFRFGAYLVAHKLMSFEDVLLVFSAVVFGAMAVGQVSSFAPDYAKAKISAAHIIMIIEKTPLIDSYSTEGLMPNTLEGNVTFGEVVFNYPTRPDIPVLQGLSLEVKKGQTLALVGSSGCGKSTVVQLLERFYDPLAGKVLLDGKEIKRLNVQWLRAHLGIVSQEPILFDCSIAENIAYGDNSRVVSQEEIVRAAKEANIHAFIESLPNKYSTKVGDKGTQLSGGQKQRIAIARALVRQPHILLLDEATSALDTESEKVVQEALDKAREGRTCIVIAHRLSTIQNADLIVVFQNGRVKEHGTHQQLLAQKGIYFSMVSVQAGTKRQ
# measurementNotes: Transporter mediated assay (substrate/inhibitor), MDCK-II cells
# Assay type: in vitro ADME
# settings: human, MDCK-MDR1; P-gp, substrate test, 0.1 µM
quantity: Papp A→B at 0.1 µM (×10⁻⁶ cm/s)
State the answer as a number, implicitly in ×10⁻⁶ cm/s.

Entry C=C[C@H]1C[N@@]2CC[C@H]1C[C@@H]2[C@@H](O)c1ccnc2ccc(OC)cc12 [quinidine, reference compound] : Papp A→B at 0.1 µM on P-gp (Homo sapiens, UniProt P08183) = 2.62

----------
# System: CYP3A4 mRNA
# measurementNotes: CYP induction, mRNA, primary cultured human hepatocytes
# Type: in vitro ADME
# settings: human, primary cultured human hepatocytes, Lot 399, 3 μM; read-out: CYP3A4 mRNA Fold Induction (fold of vehicle control)
quantity: fold induction at 48 h, 3 µM
Give the value as a plain number.

Per the record, CCc1cc(Cl)c(OC)c(N2CCN(CC(O)CCNC(=O)c3cc4ccccc4[nH]3)CC2)c1 (stereo not shown) has fold induction at 48 h, 3 µM of 2.6

----------
# measurementNotes: Metabolic stability in liver microsomes
# settings: dog, liver microsomes, pH 7.4
quantity: remaining at 2 h, 1 μM (%)
Respond with the bare value in %.

remaining at 2 h, 1 μM recorded for this compound, CCc1cc(Cl)c(OC)c(N2CCN(CC(O)CCNC(=O)c3cc4ccccc4[nH]3)CC2)c1 (stereo not shown) [R-VK4-116] , is 19.7

----------
# measurementNotes: Metabolic stability in liver microsomes
# settings: human, liver microsomes, pH 7.4
quantity: remaining at 1 h, 10 μM

// CCc1cc(Cl)c(OC)c(N2CCN(CC(O)CCNC(=O)c3cc4ccccc4[nH]3)CC2)c1 (stereo not shown) : remaining at 1 h, 10 μM value = 60.1%

----------
# targetSystem: CYP2C8 (Homo sapiens, UniProt P10632)
# Sequence (P10632 whole entry): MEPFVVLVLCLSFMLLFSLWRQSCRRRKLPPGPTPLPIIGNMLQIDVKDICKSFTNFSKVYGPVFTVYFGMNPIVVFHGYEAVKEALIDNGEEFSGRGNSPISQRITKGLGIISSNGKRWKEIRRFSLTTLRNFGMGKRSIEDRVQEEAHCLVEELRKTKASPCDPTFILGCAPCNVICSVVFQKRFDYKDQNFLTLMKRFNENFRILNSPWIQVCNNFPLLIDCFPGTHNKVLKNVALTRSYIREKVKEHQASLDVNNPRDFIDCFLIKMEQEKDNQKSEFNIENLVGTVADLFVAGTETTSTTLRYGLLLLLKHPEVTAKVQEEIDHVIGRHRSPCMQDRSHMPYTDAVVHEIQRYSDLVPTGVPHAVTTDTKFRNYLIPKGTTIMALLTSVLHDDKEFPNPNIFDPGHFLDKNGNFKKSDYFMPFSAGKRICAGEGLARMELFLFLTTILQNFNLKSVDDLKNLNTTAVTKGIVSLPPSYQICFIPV
# measurementNotes: CYP inhibition in human liver microsomes
# settings: human, human liver microsomes, probe paclitaxel
quantity: activity at 20 min, 0.3 µM (%)
Field: numeric (%). Do not append units.

The observed activity at 20 min, 0.3 µM for CCc1cc(Cl)c(OC)c(N2CCN(CC(O)CCNC(=O)c3cc4ccccc4[nH]3)CC2)c1 (stereo not shown) when tested with CYP2C8 (Homo sapiens, UniProt P10632) stands at 68.2

----------
# targetSystem: CYP2C9 (Homo sapiens, UniProt P11712)
# Sequence (P11712 whole entry): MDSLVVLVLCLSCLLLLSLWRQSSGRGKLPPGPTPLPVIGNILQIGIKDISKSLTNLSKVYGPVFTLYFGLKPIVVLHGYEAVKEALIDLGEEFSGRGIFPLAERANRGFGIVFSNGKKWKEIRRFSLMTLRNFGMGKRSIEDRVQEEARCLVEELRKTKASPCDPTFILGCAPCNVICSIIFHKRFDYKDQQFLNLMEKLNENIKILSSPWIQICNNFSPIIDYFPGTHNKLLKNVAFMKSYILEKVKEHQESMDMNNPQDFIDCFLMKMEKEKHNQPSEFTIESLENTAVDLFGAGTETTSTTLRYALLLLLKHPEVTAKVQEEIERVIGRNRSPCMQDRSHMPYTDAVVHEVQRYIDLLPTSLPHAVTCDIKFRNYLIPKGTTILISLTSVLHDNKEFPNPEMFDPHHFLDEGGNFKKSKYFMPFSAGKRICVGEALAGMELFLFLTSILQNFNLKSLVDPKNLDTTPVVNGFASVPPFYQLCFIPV
# measurementNotes: CYP inhibition in human liver microsomes
# settings: human, human liver microsomes, probe diclofenac
quantity: activity at 20 min, 1 µM (%)
Only the number, expressed in %, is required.

Per the records, this compound ( CCc1cc(Cl)c(OC)c(N2CCN(CC(O)CCNC(=O)c3cc4ccccc4[nH]3)CC2)c1 (stereo not shown) ) has activity at 20 min, 1 µM equal to 80.9

----------
# targetSystem: CYP2B6 (Homo sapiens, UniProt P20813)
# Sequence (P20813 whole entry): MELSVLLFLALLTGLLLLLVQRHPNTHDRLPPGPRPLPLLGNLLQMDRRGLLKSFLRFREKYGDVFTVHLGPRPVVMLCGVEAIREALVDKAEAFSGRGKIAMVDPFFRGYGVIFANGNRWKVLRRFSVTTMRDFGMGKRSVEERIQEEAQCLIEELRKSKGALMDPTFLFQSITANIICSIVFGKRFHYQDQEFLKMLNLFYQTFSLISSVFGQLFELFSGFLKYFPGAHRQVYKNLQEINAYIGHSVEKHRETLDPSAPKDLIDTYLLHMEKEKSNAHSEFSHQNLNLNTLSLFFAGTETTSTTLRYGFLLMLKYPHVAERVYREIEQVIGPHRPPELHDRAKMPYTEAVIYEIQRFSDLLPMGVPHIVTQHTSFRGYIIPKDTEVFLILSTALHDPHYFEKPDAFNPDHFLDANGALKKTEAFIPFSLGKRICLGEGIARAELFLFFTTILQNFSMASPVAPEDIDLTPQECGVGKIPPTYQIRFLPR
# measurementNotes: CYP inhibition in human liver microsomes
# settings: human, human liver microsomes, probe bupropion
quantity: activity at 20 min, 30 µM (%)
Kindly answer with a numeric value in %, unit omitted.

For record CCc1cc(Cl)c(OC)c(N2CCN(CC(O)CCNC(=O)c3cc4ccccc4[nH]3)CC2)c1 (stereo not shown) the listed activity at 20 min, 30 µM is 89.3
